Tested on: platelet aggregation in dog PRP
TEST_DESCRIPTION: In-Vitro Platelet Aggregation in PRP (collagen-induced)
Format: cell-based
ASSAY_CONDITIONS: Canis lupus familiaris, Test Concentration 1 × 10^-5 (10 μM), dog PRP, collagen 33.3 μg/m final
Give measured inhibition at 10 µM for each item. Keep answers brief.
Give the value in % but do not write % after it.

Dear colleague, I am looking for the recorded inhibition at 10 µM of the following compound: CCOC(=O)CC(CSc1ccccc1)NC(=O)CCCCc1ccc(C(=N)N)cc1 (racemic)
0

Dear colleague, I am looking for the recorded inhibition at 10 µM of the following compound: Cc1ccc(S(=O)(=O)CCNC(=O)CCCCc2ccc(C(=N)N)cc2)cc1
23

Dear colleague, I am looking for the recorded inhibition at 10 µM of the following compound: C[S+]([O-])CCC(CC(=O)O)NC(=O)CCCCc1ccc(C(=N)N)cc1 (racemic)
100

Dear colleague, I am looking for the recorded inhibition at 10 µM of the following compound: CS(=O)(=O)CCC(CC(=O)O)NC(=O)CCCCc1ccc(C(=N)N)cc1 (racemic)
100

Dear colleague, I am looking for the recorded inhibition at 10 µM of the following compound: Cc1ccc([S+]([O-])CCNC(=O)CCCCc2ccc(C(=N)N)cc2)cc1 (stereo not drawn)
0

Dear colleague, I am looking for the recorded inhibition at 10 µM of the following compound: CSCCC(CC(=O)O)NC(=O)CCCCc1ccc(C(=N)N)cc1 (racemic)
100

Dear colleague, I am looking for the recorded inhibition at 10 µM of the following compound: CCOC(=O)CC(CC[S+]([O-])Cc1ccccc1)NC(=O)CCCCc1ccc(C(=N)N)cc1 (racemic)
100

Dear colleague, I am looking for the recorded inhibition at 10 µM of the following compound: N=C(N)c1ccc(CCCCC(=O)NC(CC(=O)O)C[S+]([O-])c2ccccc2)cc1 (racemic)
100

Dear colleague, I am looking for the recorded inhibition at 10 µM of the following compound: CCOC(=O)CC(CS(=O)(=O)c1ccccc1)NC(=O)CCCCc1ccc(C(=N)N)cc1 (racemic)
3
